- Procedure Details: Individual predicted steady‐state exposures
- Assay type: in vivo, human
- Stated Conditions: human, plasma, AUCss,0–24 geometric mean (CV), Fever at baseline: Yes
Assay Endpoint: AUC (µg·h/mL)

> print(dat)
                           molecular.string  result.value
1  NC(=O)[C@@H]1CC[C@@H]2CN1C(=O)N2OS(=O)(=O)O           134
2  CC(C)(O/N=C(\C(=O)N[C@@H]1C(=O)N2C(C(=O)[O-])=C(C[n+]3ccccc3)CS[C@H]12)c1csc(N)n1)C(=O)O           859

====

- Procedure Details: Final avibactam PopPK model
- Assay type: in vivo, human
- Stated Conditions: human, plasma, intravenous, θ6: CL estimate for patients on dialysis
Assay Endpoint: clearance (mL/min)

> print(dat)
                           molecular.string  assay.endpoint  result.value
1  NC(=O)[C@@H]1CC[C@@H]2CN1C(=O)N2OS(=O)(=O)O       clearance           347

Source listed as paper PMC6440567.
